Values compiled from ChEMBL document CHEMBL1764979.

# protocol.description: Chemical stability of the compound
# Type: physicochemical
measurement.type: Stability

Record excerpt, results attached:
molecule	Stability
COc1ccc(CNc2nc(NCC(C)OC(=O)Nc3ccccc3)nc3c(NCc4ccc(OC)c(OC)c4)nc(NCC(C)OC(=O)Nc4ccccc4)nc23)cc1OC (stereo not drawn)	Stable
COc1ccc(CNc2nc(NCC(C)OC(=O)Nc3ccc([N+](=O)[O-])cc3)nc3c(NCc4ccc(OC)c(OC)c4)nc(NCC(C)O)nc23)cc1OC (stereo not drawn)	Stable
COc1ccc(CNc2nc(NCC(C)O)nc3c(NCc4ccc(OC)c(OC)c4)nc(NCC(C)O)nc23)cc1OC (stereo not drawn)	Stable
CCOC(=O)[C@H](C)NC(=O)OC(C)CNc1nc(NCc2ccc(OC)c(OC)c2)c2nc(NCC(C)O)nc(NCc3ccc(OC)c(OC)c3)c2n1 (stereo partly drawn)	Unstable
CCOC(=O)[C@H](Cc1ccccc1)NC(=O)OC(C)CNc1nc(NCc2ccc(OC)c(OC)c2)c2nc(NCC(C)O)nc(NCc3ccc(OC)c(OC)c3)c2n1 (stereo partly drawn)	Unstable
COc1ccc(CNc2nc(NCC(C)OC(=O)Nc3ccc([N+](=O)[O-])cc3)nc3c(NCc4ccc(OC)c(OC)c4)nc(NCC(C)OC(=O)Nc4ccc([N+](=O)[O-])cc4)nc23)cc1OC (stereo not drawn)	Stable

I have 2 molecules here; please give me Stability for each one.
1. CCOC(=O)CNC(=O)OC(C)CNc1nc(NCc2ccc(OC)c(OC)c2)c2nc(NCC(C)OC(=O)NCC(=O)OCC)nc(NCc3ccc(OC)c(OC)c3)c2n1 (stereo not drawn)
2. CCOC(=O)[C@H](C)NC(=O)OC(C)CNc1nc(NCc2ccc(OC)c(OC)c2)c2nc(NCC(C)OC(=O)N[C@@H](C)C(=O)OCC)nc(NCc3ccc(OC)c(OC)c3)c2n1 (stereo partly drawn)

a:
1: Unstable; 2: Unstable
